- procedure.summary: qHTS assay to identify small molecule antagonists of the androgen receptor (AR) signaling pathway using the MDA cell line in the presence of 0.5 nM R1881 - cell viability counter screen (AID 1259242); further: nearly all actives have a fitted effect of over 45% in size; further: potency means the concentration at half of the fitted maximal effect
- experimental.setup: MDA-kb2 viability, CellTiter-Fluor protease fluorescence, 16 h; series mostly up to 92.4 µM
Results filed as inconclusive are left out. Calls of active or inactive are those of the source. The call rests on the fitted dose curve; in most records, active means well fitted cell-killing curve with a large enough effect in the repeat runs; inconclusive means weak or mixed curves, or effect the other way; inactive means flat fitted curve, though single readings scatter.
observable: Potency

Below are worked cases with known answers.
compound.structure.string	Potency
CCOCCOC(C)=O	inactive
CN(C)[C@@H]1C(=O)C(C(N)=O)=C(O)[C@@]2(O)C(=O)C3=C(O)c4c(O)ccc(Cl)c4[C@@](C)(O)[C@H]3C[C@@H]12	inactive
CC(C)Oc1cccc(NC(=O)c2ccccc2C(F)(F)F)c1	inactive
[Cl][Sn]([c]1ccccc1)([c]1ccccc1)[c]1ccccc1	1.64 µM (active)
CC(=O)c1ccc(-c2ccccc2)cc1	inactive
Cc1c(Cl)c(=O)oc2cc(OP(=O)(OCCCl)OCCCl)ccc12	inactive
C[C@H]1O[C@@H](O[C@H]2[C@@H](O)C[C@H](O[C@H]3[C@@H](O)C[C@H](O[C@H]4CC[C@@]5(C)[C@H](CC[C@@H]6[C@@H]5CC[C@]5(C)[C@@H](C7=CC(=O)OC7)CC[C@]65O)C4)O[C@@H]3C)O[C@@H]2C)C[C@H](O)[C@@H]1O	inactive
Cn1cc(C2=C(c3cn(C4CCN(Cc5ccccn5)CC4)c4ccccc34)C(=O)NC2=O)c2ccccc21	inactive

Challenge: For the molecule O=C(CCl)Nc1ccccc1 , report Potency.
Response given: 61.1 µM (active)

Challenge: Respond only with Potency recorded for CC(c1ccc(O)cc1)c1ccc(O)cc1
Response given: inactive

====

- procedure.summary: qHTS assay to identify small molecule antagonists of the thyroid receptor (TR) signaling pathway (AID 743065); further: nearly all actives have a fitted effect of over 55% in size
- experimental.setup: GH3.TRE-Luc, T3-stimulated luciferase inhibition, 23.5 h; series mostly up to 70.3 µM
Inconclusive results are not listed. Calls of active or inactive are those of the source. Calls follow the shape of the dose curve; as a rule, active = well fitted inhibition curve with a large enough effect in the repeat runs; inconclusive = weak or mixed curves; inactive = no such curve, though single readings can be large or run the other way.
Return exactly one item of class 1 for active, class 0 for inactive

molecule	assigned.label
CCN(CC)c1c([N+](=O)[O-])cc(C(F)(F)F)c(N)c1[N+](=O)[O-]	class 0
Oc1ccc(C2(c3ccc(O)cc3)c3ccccc3-c3ccccc32)cc1	class 1
O=C(NC(=O)c1c(F)cccc1F)Nc1cc(Cl)c(OC(F)(F)C(F)F)c(Cl)c1	class 0

Challenge: Entry Cn1cc(C2=C(c3cn(C4CCN(Cc5ccccn5)CC4)c4ccccc34)C(=O)NC2=O)c2ccccc21 : call = ?
Response given: class 0

Challenge: // return assay outcome for CC(C)C1CCC(Cc2ccc(Cl)cc2)C1(O)Cn1cncn1 (configuration not stated)
Response given: class 1

Challenge: For ClC(Cl)=C(Cl)Cl , what call appears in the results of this test?
Response given: class 0

Challenge: Returns: the outcome recorded for CCOc1cc(C(C)(C)C)ccc1C1COC(c2c(F)cccc2F)=N1 (configuration not stated) in this assay.
Response given: class 1

Challenge: Identify the outcome logged in this assay for the molecule shown: CC(C)(C)c1cc([N+](=O)[O-])cc(C(C)(C)C)c1O
Response given: class 1

Challenge: Which outcome did this test record for the molecule Cc1ccc(OP(=O)(Oc2ccccc2)Oc2ccccc2)cc1 ?
Response given: class 0

====

- procedure.summary: qHTS assay to identify small molecule antagonists of the estrogen receptor alpha (ER-alpha) signaling pathway using the BG1 cell line - cell viability counter screen (AID 743081);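 further: compound given together with 17beta-estradiol as the ER stimulus; nearly all actives have a fitted effect of over 45% in size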
- experimental.setup: BG1Luc4E2 viability, CellTiter-Fluor, 22 h; series mostly up to 70.3 µM
Results filed as inconclusive are left out. Calls of active or inactive are those of the source. Calls follow the shape of the dose curve; as a rule, active = well fitted cell-killing curve with a large enough effect in the repeat runs; inconclusive = weak or mixed curves, or effect the other way; inactive = flat fitted curve, though single readings scatter.
# output must be one of TRUE = active, FALSE = inactive

Examples from the recorded data:
molecule	assigned.label
CCCCCCCCCCCCCCC(Br)C(=O)O (stereo unspecified)	FALSE
CCCCCCCCCCCCCC[P+](CCCCCC)(CCCCCC)CCCCCC (tested in a mixture with another compound)	TRUE
Nc1ccccc1C(=O)OC/C=C/c1ccccc1	FALSE
O=CC(Br)(Br)Br	FALSE
CSCCCN=C=S	FALSE

// switching to the query molecule
Challenge: Check the results log: what was the call for CC(=O)Nc1ccc2c(c1)Cc1ccccc1-2 ?
Response given: FALSE
